Test Target: human Claudin-6 (CLDN6) (human) (UniProt P56747)
Assay Info: FACS, limiting dilution, OV90 cells
Metric Name: FACS signal at 1.6 nM
Just the number, please, no unit attached.

Solved cases below.
| Binder | FACS signal at 1.6 nM |
| --- | --- |
| AB S6 (antibody, V domains shown) VH: EVQLLESGGGLVQPGGSMRLSCAASGFTFSNYWMNWVRQAPGKGLEWLAQIRLKSDNYVTHYADSVKGRFTISRDDSKRTVYLQMNSLRAEDTGTYYCNDGPPSGSWGQGTLLTVSS VL: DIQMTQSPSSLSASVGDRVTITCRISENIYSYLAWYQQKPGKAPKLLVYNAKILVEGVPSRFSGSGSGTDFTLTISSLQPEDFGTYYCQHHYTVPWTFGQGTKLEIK | 791 |
| AB S9 (antibody, V domains shown) VH: QVQLVQSGAEVKKPGASVKMSCKASGYTFTTYTIHWVRQAPGQGLEWIGVINPSSGYTDYAQKFQGRVTLTADKSTSTVYMELSSLRSEDTAVYFCANGDYYVGYWGQGTLVTVSS VL: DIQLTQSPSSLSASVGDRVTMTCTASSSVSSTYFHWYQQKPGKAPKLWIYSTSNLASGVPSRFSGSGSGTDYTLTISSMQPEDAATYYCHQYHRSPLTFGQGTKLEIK | 14000 |

Kindly consider the entry below.
Q: // returns reported FACS signal at 1.6 nM for input AB S7 (antibody, V domains shown) VH: QVQLVQSGAEVKKPGASVKMSCKASGYTFTTYTIHWVRQAPGQGLEWIGFINPSSGYTEYAQKFQGRVTLTADKSTSTVYMELSSLRSEDTAVYFCANGDYYVAYWGQGTLVTVSS VL: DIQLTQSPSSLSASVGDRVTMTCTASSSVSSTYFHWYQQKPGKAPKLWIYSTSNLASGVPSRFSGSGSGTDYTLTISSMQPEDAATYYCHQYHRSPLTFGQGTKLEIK
A: 1910
